Tested on: 429239-143-T-J1-PDC complex spheroid viability
test method notes: Anticancer human tumor 429239-143-T-J1-PDC patient-derived small cell lung carcinoma cell line growth inhibition [POLQ]; active = viability on the fitted dose curve at most 10% of control; inactive = the rest
measurement context: second compound 0.0316 µM; first compound 10 µM
Your response should consist of one outcome taken from active, inactive

Nc1ccn(C2OC(CO)C(O)C2(F)F)c(=O)n1 (stereo not given) + Nc1ccc(C#CCN(C(=O)Cc2ncc(C(F)(F)F)cc2C(F)(F)F)c2ccc(F)cc2)nn1 = active
CNCc1ccc(-c2[nH]c3cc(F)cc4c3c2CCNC4=O)cc1 + Nc1ccc(C#CCN(C(=O)Cc2ncc(C(F)(F)F)cc2C(F)(F)F)c2ccc(F)cc2)nn1 = inactive
C#Cc1c(F)ccc2cc(O)cc(-c3ncc4c(N5CC6CCC(C5)N6)nc(OCC56CCCN5CC(F)C6)nc4c3F)c12 (stereo not given) + COC1C(OC(N)=O)C(O)C(Oc2ccc3c(O)c(NC(=O)c4ccc(O)c(CC=C(C)C)c4)c(=O)oc3c2C)OC1(C)C = inactive
CCc1cc2c(N3CCc4c(cc(Cn5ccnc5)cc4-c4cn(C)nc4C(F)(F)F)C3=O)ccnc2c(OC)n1 + COC1C(OC(N)=O)C(O)C(Oc2ccc3c(O)c(NC(=O)c4ccc(O)c(CC=C(C)C)c4)c(=O)oc3c2C)OC1(C)C = inactive

// next entry
Q: For this molecule, state the assay outcome: O=C(Nc1ccc(O)c(NS(=O)(=O)c2ccc(F)cc2)c1)c1ccc(-c2ccccc2)cc1 + Nc1ccc(C#CCN(C(=O)Cc2ncc(C(F)(F)F)cc2C(F)(F)F)c2ccc(F)cc2)nn1
Result: inactive

====

Test system: 429239-143-T-J1-PDC complex spheroid viability
test method notes: Anticancer human tumor 429239-143-T-J1-PDC cell line growth inhibition [POLQ];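 also: luminescence signal used as surrogate measure of viable cells; spheroids exposed to compounds for seven days before readout; 100% = DMSO vehicle control viability as luminescence relative to vehicle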
measurement context: second compound 0.316 µM; first compound 3.16 µM; stronger effect = lower value
Kindly apply the following: condition met if viability, T/C is less than 70%, condition not met in every other case.

CC1COCCN1c1cc(C2(S(C)(=N)=O)CC2)nc(-c2ccnc3[nH]ccc23)n1 (stereo not given) + Cc1cccc(N(C)C(=O)C2C(O)CCN2c2nc(C)cc(C(F)(F)F)c2C#N)c1 = condition met
COc1cccc2c1C(=O)c1c(O)c3c(c(O)c1C2=O)CC(O)(C(=O)CO)CC3OC1CC(N)C(O)C(C)O1 (stereo not given) + Cc1cccc(N(C)C(=O)C2C(O)CCN2c2nc(C)cc(C(F)(F)F)c2C#N)c1 = condition met
CC1COCCN1c1cc(C2(O)CC3CCC(C2)O3)c2cnn(-c3ccn[nH]3)c2n1 (stereo not given) + COC1C(OC(N)=O)C(O)C(Oc2ccc3c(O)c(NC(=O)c4ccc(O)c(CC=C(C)C)c4)c(=O)oc3c2C)OC1(C)C = condition met
COc1cc2cc(C(=O)CCC(=O)O)sc2cc1OC + Nc1ccc(C#CCN(C(=O)Cc2ncc(C(F)(F)F)cc2C(F)(F)F)c2ccc(F)cc2)nn1 = condition not met
O=C(Nc1ccc(O)c(NS(=O)(=O)c2ccc(F)cc2)c1)c1ccc(-c2ccccc2)cc1 + COC1C(OC(N)=O)C(O)C(Oc2ccc3c(O)c(NC(=O)c4ccc(O)c(CC=C(C)C)c4)c(=O)oc3c2C)OC1(C)C = condition not met

Q: Regarding C#Cc1c(F)ccc2cc(O)cc(-c3ncc4c(N5CC6CCC(C5)N6)nc(OCC56CCCN5CC(F)C6)nc4c3F)c12 (stereo not given) + COC1C(OC(N)=O)C(O)C(Oc2ccc3c(O)c(NC(=O)c4ccc(O)c(CC=C(C)C)c4)c(=O)oc3c2C)OC1(C)C , kindly confirm whether its viability, T/C is beneath 70%.
Result: condition not met

Q: Same question, COc1cccc2c1C(=O)c1c(O)c3c(c(O)c1C2=O)CC(O)(C(=O)CO)CC3OC1CC(N)C(O)C(C)O1 (stereo not given) + Nc1ccc(C#CCN(C(=O)Cc2ncc(C(F)(F)F)cc2C(F)(F)F)c2ccc(F)cc2)nn1 this time
Result: condition met

Q: Same question, CC1COCCN1c1cc(C2(S(C)(=N)=O)CC2)nc(-c2ccnc3[nH]ccc23)n1 (stereo not given) + Nc1ccc(C#CCN(C(=O)Cc2ncc(C(F)(F)F)cc2C(F)(F)F)c2ccc(F)cc2)nn1 this time
Result: condition not met

Q: Same question, CC1COCCN1c1cc(-c2ccnn2C)c2ccnc(-c3ccn[nH]3)c2n1 (stereo not given) + Nc1ccc(C#CCN(C(=O)Cc2ncc(C(F)(F)F)cc2C(F)(F)F)c2ccc(F)cc2)nn1 this time
Result: condition met

====

Tested on: 429239-143-T-J1-PDC complex spheroid viability
test method notes: Anticancer human tumor 429239-143-T-J1-PDC cell line growth inhibition [POLQ];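 also: luminescence signal used as surrogate measure of viable cells; spheroids exposed to compounds for seven days before readout; 100% = DMSO vehicle control viability as luminescence relative to vehicle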
measurement context: second compound 3.16 µM; first compound 0.1 µM; stronger effect = lower value
Kindly apply the following: t if viability, T/C is less than 50%, f in every other case.

As a guide, the following entries are already answered.
CCCS(=O)(=O)Nc1ccc(F)c(C(=O)c2c[nH]c3ncc(-c4ccc(Cl)cc4)cc23)c1F + Cc1cccc(N(C)C(=O)C2C(O)CCN2c2nc(C)cc(C(F)(F)F)c2C#N)c1 = f
COc1cccc2c1C(=O)c1c(O)c3c(c(O)c1C2=O)CC(O)(C(=O)CO)CC3OC1CC(N)C(O)C(C)O1 (stereo unspecified) + COC1C(OC(N)=O)C(O)C(Oc2ccc3c(O)c(NC(=O)c4ccc(O)c(CC=C(C)C)c4)c(=O)oc3c2C)OC1(C)C = t
CC1COCCN1c1cc(C2(O)CC3CCC(C2)O3)c2cnn(-c3ccn[nH]3)c2n1 (stereo unspecified) + Nc1ccc(C#CCN(C(=O)Cc2ncc(C(F)(F)F)cc2C(F)(F)F)c2ccc(F)cc2)nn1 = f
C#Cc1c(F)ccc2cc(O)cc(-c3ncc4c(N5CC6CCC(C5)N6)nc(OCC56CCCN5CC(F)C6)nc4c3F)c12 (stereo unspecified) + Cc1cccc(N(C)C(=O)C2C(O)CCN2c2nc(C)cc(C(F)(F)F)c2C#N)c1 = f

Q: Regarding COc1cccc(OCCCN)c1-c1cc(Nc2cnc(C#N)cn2)n[nH]1 + COC1C(OC(N)=O)C(O)C(Oc2ccc3c(O)c(NC(=O)c4ccc(O)c(CC=C(C)C)c4)c(=O)oc3c2C)OC1(C)C , kindly confirm whether its viability, T/C is beneath 50%.
Result: t

====

Test system: 429239-143-T-J1-PDC complex spheroid viability
test method notes: Anticancer human tumor 429239-143-T-J1-PDC cell line growth inhibition [POLQ];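 also: luminescence signal used as surrogate measure of viable cells; spheroids exposed to compounds for seven days before readout; 100% = DMSO vehicle control viability as luminescence relative to vehicle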
measurement context: second compound 3.16 µM; first compound 0.1 µM; stronger effect = lower value
reported endpoint: viability, T/C (%)
Respond numerically; units are % and should not be typed.

COc1cccc(OCCCN)c1-c1cc(Nc2cnc(C#N)cn2)n[nH]1 + Nc1ccc(C#CCN(C(=O)Cc2ncc(C(F)(F)F)cc2C(F)(F)F)c2ccc(F)cc2)nn1 = 74.5

Q: Can you share its viability, T/C? I mean this compound: Cn1ncnc1[C@H]1c2n[nH]c(=O)c3cc(F)cc(c23)N[C@@H]1c1ccc(F)cc1 + Nc1ccc(C#CCN(C(=O)Cc2ncc(C(F)(F)F)cc2C(F)(F)F)c2ccc(F)cc2)nn1
Result: 69.8

Q: Same question, CC1COCCN1c1cc(C2(O)CC3CCC(C2)O3)c2cnn(-c3ccn[nH]3)c2n1 (stereo not drawn) + Cc1cccc(N(C)C(=O)C2C(O)CCN2c2nc(C)cc(C(F)(F)F)c2C#N)c1 this time
Result: 31.8

====

System: 429239-143-T-J1-PDC complex spheroid viability
test method notes: Anticancer human tumor 429239-143-T-J1-PDC cell line growth inhibition [POLQ];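 also: luminescence signal used as surrogate measure of viable cells; spheroids exposed to compounds for seven days before readout; 100% = DMSO vehicle control viability as luminescence relative to vehicle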
measurement context: second compound 10 µM; first compound 1 µM; stronger effect = lower value
Measured viability, T/C, listed per entry.
Respond numerically; units are % and should not be typed.

Below, each entry is followed by its recorded viability, T/C result.
CC1COCCN1c1cc(-c2ccnn2C)c2ccnc(-c3ccn[nH]3)c2n1 (stereo unspecified) + COC1C(OC(N)=O)C(O)C(Oc2ccc3c(O)c(NC(=O)c4ccc(O)c(CC=C(C)C)c4)c(=O)oc3c2C)OC1(C)C = 13.1
CNCc1ccc(-c2[nH]c3cc(F)cc4c3c2CCNC4=O)cc1 + Cc1cccc(N(C)C(=O)C2C(O)CCN2c2nc(C)cc(C(F)(F)F)c2C#N)c1 = 61.8
COc1cccc(OCCCN)c1-c1cc(Nc2cnc(C#N)cn2)n[nH]1 + Nc1ccc(C#CCN(C(=O)Cc2ncc(C(F)(F)F)cc2C(F)(F)F)c2ccc(F)cc2)nn1 = 26.1
CC1COCCN1c1cc(-c2ccnn2C)c2ccnc(-c3ccn[nH]3)c2n1 (stereo unspecified) + Nc1ccc(C#CCN(C(=O)Cc2ncc(C(F)(F)F)cc2C(F)(F)F)c2ccc(F)cc2)nn1 = 25.8

Q: Can you share its viability, T/C? I mean this molecule: CCc1c2c(nc3ccc(O)cc13)-c1cc3c(c(=O)n1C2)COC(=O)[C@]3(O)CC + Nc1ccc(C#CCN(C(=O)Cc2ncc(C(F)(F)F)cc2C(F)(F)F)c2ccc(F)cc2)nn1
Result: 1.68

Q: Same question, CC(C)n1c(=O)n(C)c2cnc3cc(F)c(-c4ccc(OCCCN5CCCCC5)nc4)cc3c21 + Nc1ccc(C#CCN(C(=O)Cc2ncc(C(F)(F)F)cc2C(F)(F)F)c2ccc(F)cc2)nn1 this time
Result: 99.4

Q: Same question, COc1cccc(OCCCN)c1-c1cc(Nc2cnc(C#N)cn2)n[nH]1 + COC1C(OC(N)=O)C(O)C(Oc2ccc3c(O)c(NC(=O)c4ccc(O)c(CC=C(C)C)c4)c(=O)oc3c2C)OC1(C)C this time
Result: 23.4

Q: Same question, CCc1c2c(nc3ccc(O)cc13)-c1cc3c(c(=O)n1C2)COC(=O)[C@]3(O)CC + Cc1cccc(N(C)C(=O)C2C(O)CCN2c2nc(C)cc(C(F)(F)F)c2C#N)c1 this time
Result: 3.41

Q: Same question, CCc1cc2c(N3CCc4c(cc(Cn5ccnc5)cc4-c4cn(C)nc4C(F)(F)F)C3=O)ccnc2c(OC)n1 + Cc1cccc(N(C)C(=O)C2C(O)CCN2c2nc(C)cc(C(F)(F)F)c2C#N)c1 this time
Result: 96.5

Q: Same question, Nc1ccn(C2OC(CO)C(O)C2(F)F)c(=O)n1 (stereo unspecified) + Nc1ccc(C#CCN(C(=O)Cc2ncc(C(F)(F)F)cc2C(F)(F)F)c2ccc(F)cc2)nn1 this time
Result: 7.48

Q: Same question, COc1ccc([C@@H](O)c2cc(-c3ncnc4cc(N5CCOCC5)ccc34)c(F)cc2Cl)nn1 + Cc1cccc(N(C)C(=O)C2C(O)CCN2c2nc(C)cc(C(F)(F)F)c2C#N)c1 this time
Result: 64.3
